# Lookup of reported inhibition keyed by entry
test: PhoP regulon inhibitors, Salmonella typhi PhoP promoter GFP reporter, confirmatory (AID 1850); conditions: fluorescence, 4 h, at 50 µM, stronger effect = higher value;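 note: 0% = induced wells with vehicle and 100% = uninduced wells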
Among all 310,000 compounds or so, about 1,000 (0.32%) were called active. Only a sample is shown. Measured potencies and affinities stand elsewhere.
Give the number; % is assumed, so skip it.

Field: example entries. Status: answers known.
> print(dat)
                                   molecule  u  observed.result
1  COC(=O)CNC(=O)c1ccc(NS(=O)(=O)c2cc([N+](=O)[O-])ccc2Cl)cc1  %            -1.71
2  Oc1c(C(c2ccccn2)N2CCC(Cc3ccccc3)CC2)cc(Cl)c2cccnc12 (stereo not given)  %             -1.4

// query Would you mind telling me what inhibition value was observed for Cc1nc2sc3c(c2c(=O)[nH]1)CCCCC3 ?
// result -10.5

// query Any idea what inhibition was measured for Cc1ccc(-c2c[n+](CC(=O)Nc3c(C)cccc3C)c3n2CCC3)cc1 ?
// result -24.6

// query Quick one: inhibition of COc1ccc(C(=O)NCCCOC(=O)c2ccc(OC)cc2)cc1 ?
// result -6.57

// query Which inhibition is listed for CN1CCN(C(c2ccc(C(F)(F)F)cc2)c2cc(Cl)c3cccnc3c2O)CC1 (stereo not given) ?
// result 2.9

// query Using the record for O=C(CSc1ccccc1)Nc1ccc(N2CCOCC2)c(F)c1 , report its inhibition.
// result -2.5

// query Quick one: inhibition of Cc1cc(C)nc(CCNC(=O)c2cc(COc3c(C)cccc3C)on2)n1 ?
// result -3.31
